Catalogue of molecules with associated EC50
# Tested on: KMS11 (human myeloma cell line)
# ASSAY_NOTES: Cell proliferation assay (CellTiter-Glo) in KMS11 cells
# Assay type: cell-based
# ASSAY_CONTEXT: KMS-11, 72 h, Table 5, 3 days, read-out: KMS11-luc EC50
Report only the number, with the unit nM understood.

Some solved cases for reference:
CC(C)Oc1cc(F)c(-c2nc(C(=O)Nc3cnccc3[C@H]3C[C@@H](O)[C@](C)(O)[C@@H](C)C3)ccc2F)c(F)c1	1540
C[C@H]1C[C@@H](c2ccncc2NC(=O)c2nc(-c3ccc(F)cn3)ccc2N)C[C@@H](O)[C@]1(C)O	4150
C[C@H]1C[C@@H](c2ccncc2NC(=O)c2ccc(F)c(-c3c(F)cc(C4(O)CCCC4)cc3F)n2)C[C@@H](N)[C@]1(C)O	43
C[C@H]1C[C@@H](c2ccncc2NC(=O)c2ccc(F)c(-c3c(F)cc(C(C)(C)O)cc3F)n2)C[C@@H](O)[C@]1(C)O	189

API: the following record is the query input.
Query: EC50; subject: C[C@@H]1C[C@H](c2ccncc2NC(=O)c2ccc(F)c(-c3c(F)cc(C(C)(C)O)cc3F)n2)C[C@H](O)[C@@]1(C)O
3470
